List of pKi ± SEM values.
- measurementTarget: human CB1 receptor (Homo sapiens, UniProt P21554)
- Sequence (P21554 whole entry): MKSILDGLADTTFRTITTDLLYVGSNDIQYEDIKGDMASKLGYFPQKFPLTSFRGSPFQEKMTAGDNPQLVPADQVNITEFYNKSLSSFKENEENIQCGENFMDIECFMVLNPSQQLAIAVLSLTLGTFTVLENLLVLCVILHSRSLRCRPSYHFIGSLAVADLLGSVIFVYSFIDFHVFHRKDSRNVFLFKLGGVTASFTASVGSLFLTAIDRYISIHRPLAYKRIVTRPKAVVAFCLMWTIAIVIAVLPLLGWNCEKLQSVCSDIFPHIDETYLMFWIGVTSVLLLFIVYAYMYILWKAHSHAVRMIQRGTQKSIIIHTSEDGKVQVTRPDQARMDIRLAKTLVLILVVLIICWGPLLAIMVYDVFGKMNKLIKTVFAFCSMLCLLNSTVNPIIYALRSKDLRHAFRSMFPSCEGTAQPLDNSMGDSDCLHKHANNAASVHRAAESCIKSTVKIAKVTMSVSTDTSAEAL
- assayComment: biochemical
- Assay type: binding
- Design: purchased Merck HTS019M; host or cells: Chem-1 cells
- statedConditions: [3H]CP-55,940 displacement, membranes of Chem-1 cells expressing human CB1
The reply should be a number, written without any unit.

Sample answers from the record:
CC(C)=CCCC1(C)C=Cc2c(ccc(C3CC(=O)c4c(O)cc(O)cc4O3)c2O)O1 (centres unmarked) [Compound 26, Sanggenon N]: 4.71
COc1cc2c(cc1OC)CN(C(=O)NC(CCSC)C(=O)NC1CCCc3ccccc31)CC2 (racemic) [Compound 39]: 4.40
CC(C)(O)[C@@H]1CC[C@](C)([C@H]2[C@@H](O)C[C@@]3(C)[C@@H]4C[C@H](O)[C@H]5C(C)(C)[C@@H](O)CC[C@@]56C[C@@]46CC[C@]23C)O1 [Compound 14, Cyclogalegenol]: 3.76
OCCN1CCN(CC/C=C2/c3ccccc3Sc3ccc(C(F)(F)F)cc32)CC1 [Compound 33, Flupentixol]: 4.27
Cc1ccc(S(=O)(=O)NC(Cc2c[nH]c3ccccc23)C(=O)Oc2ccc3c4c(c(=O)oc3c2)CCC4)cc1 (racemic) [Compound 36]: 4.39

Recorded pKi ± SEM (compound Cc1c(O[C@H](C)C(=O)NC[C@@H](O)c2ccccc2)ccc2c(-c3ccccc3)cc(=O)oc12 (racemic) [Compound 25] ): 4.86

# credit: paper PMC9585589
